test system: HCT116; test: AC50 cell viability (CellTiter-Glo); higher = less potent; details: 48 h
Counter-ions that a name gives are not always drawn.
MEASUREMENT KIND: AC50 cell viability
The answer should read as a number with its unit following.

Hi team, please reply with AC50 cell viability for each item in this list.
1. CN(Cc1ccc(/C=C/C(=O)NO)cc1)CC12CC3CC(CC(C3)C1)C2 [Martinostat]
2. CCCCCCCOc1ccc(CCC(N)(CO)CO)cc1C(F)(F)F [Amiselimod hydrochloride]
3. Cc1c(C(=O)NN2CCCCC2)nn(-c2ccc(Cl)cc2Cl)c1-c1ccc(Cl)cc1 [Rimonabant]
4. CN1CCN(Cc2ccc(NC(=O)Nc3ccc(Oc4cc(NC(=O)C5CC5)ncn4)cc3)cc2C(F)(F)F)CC1 [WS-3]
5. COc1ccc([C@@H](O)[C@@H](C)Oc2ccc([C@H]3O[C@H](c4ccc(O[C@H](C)[C@H](O)c5ccc(OC)c(OC)c5)c(OC)c4)[C@H](C)[C@H]3C)cc2OC)cc1OC [Manassantin A]
6. CCC[C@H](NC(=O)/C(C#N)=C/c1cccc(Br)n1)c1ccccc1 [Degrasyn]

result:
1. 0.263 µM
2. 10.5 µM
3. 23.5 µM
4. 0.0934 µM
5. 0.372 µM
6. 26.3 µM

Hi team, please reply with AC50 cell viability for each item in this list.
1. Nc1nc(NCCNc2ncc(-n3ccnc3)c(-c3ccc(Cl)cc3Cl)n2)ccc1[N+](=O)[O-]
2. Clc1ccccc1C(c1ccccc1)(c1ccccc1)n1cccn1 [TRAM-34]
3. CC#C[C@@H](CC(=O)O)c1ccc(OCc2cccc(-c3ccc(C(F)(F)F)cc3)c2)cc1 [AMG-837]
4. C/C(NNC(=O)c1cccc([S+](=O)([O-])N2CCOCC2)c1)=C1\C=C(Cl)C=CC1=O [SP-2509]

result:
1. 2.09 µM
2. 18.6 µM
3. 20.9 µM
4. 2.63 µM

Hi team, please reply with AC50 cell viability for each item in this list.
1. Oc1ccc(/C=C/c2cc(O)cc(O)c2)cc1 [Resveratrol]
2. C[C@H](NC(=O)C(=O)Nc1ccccc1C(C)(C)C)C(=O)N[C@@H](CC(=O)O)C(=O)COc1c(F)c(F)cc(F)c1F [Emricasan]
3. CCOC(=O)N1c2ccc(C(F)(F)F)cc2[C@@H](N(Cc2cc(C(F)(F)F)cc(C(F)(F)F)c2)C(=O)OC)C[C@H]1CC [Torcetrapib]
4. CC(C)NCCCn1c(Sc2cc(Cl)cc(Cl)c2)nc2c(N)ncnc21 [PU-WS-13]
5. C/C(=N\NC(=O)c1cccc([S+](=O)([O-])N2CCOCC2)c1)c1cc(Cl)ccc1O [SP2509]

result:
1. 20.9 µM
2. 13.2 µM
3. 8.33 µM
4. 20.9 µM
5. 1.86 µM

----------
tested on: HCT116; test: efficacy (fitted maximal change in viability relative to DMSO control); higher = less cytotoxic (negative = loss of viability); settings: 48 h
Records here are stratified by efficacy; strata: bucket A (below -60%), bucket B (-60% to below -30%), bucket C (-30% or more)

{"COMPOUND": "CC(C)(O)CC(=O)NCCn1ccc2ncnc(Nc3ccc(Oc4cccc(C(F)(F)F)c4)c(Cl)c3)c21", "LABEL VALUE": "bucket A"}

query: Field: class (efficacy) — entry: Cn1c(-c2ccccc2C(F)(F)F)nnc1C12CCC(c3noc(C4CC(F)(F)C4)n3)(CC1)CC2
result: bucket C

query: Field: class (efficacy) — entry: COC1=CC2=C(C=C1CC3=C(F)C(=CC=C3)Cl)C(=O)\C(=C/N2[C@H](CO)C(C)C)C(O)=O
result: bucket A

query: Field: class (efficacy) — entry: O=C(Nc1ccccc1)Nc1ccc(-c2ccc(C(=O)[C@@H]3CCC[C@H]3C(=O)O)cc2)cc1
result: bucket C

query: Field: class (efficacy) — entry: FC1=C(C=C(C/C2=N/NC(=O)C3=C2C=CC=C3)C=C1)C(=O)N4CCN(CC4)C(=O)C5CC5
result: bucket B

query: Field: class (efficacy) — entry: C[C@@H]1CC(=O)Nc2cccc(-c3ccc4c(c3)c(-c3cnn(C)c3)nn4C)c2N1
result: bucket A

query: Field: class (efficacy) — entry: Oc1ccc(C2CNCCc3c2cc(O)c(O)c3Cl)cc1 (stereo not given)
result: bucket C

query: Field: class (efficacy) — entry: O=C(O)CNC(=O)C1C(=O)N(C2CCCCC2)C(=O)N(C2CCCCC2)C1=O
result: bucket C

query: Field: class (efficacy) — entry: OCCOc1ccc(/C(=C(/CCCl)c2ccccc2)c2ccccc2)cc1
result: bucket B

query: Field: class (efficacy) — entry: CC(C)c1ccc2oc3nc(N)c(C(=O)O)cc3c(=O)c2c1
result: bucket C

Source of measurements: the supplement of paper PMC10290057
